Values were extracted from ChEMBL document CHEMBL2086295.

Tested on: Plasmodium falciparum
Assay: Antiplasmodial against chloroquine-rsistant Plasmodium falciparum K1 assessed as inhibition of [3H]hypoxanthine incorporation after 24 hrs by scintillation counting
Assay type: functional, organism-based
pIC50: −log10 of the molar value.
recorded-metric: pIC50

- COc1ccc2nccc(C(c3nnn[nH]3)N3CCOCC3)c2c1 (stereo not given): 5.17
- COc1ccc2nccc(C(c3nnnn3C(C)(C)C)N3CCN(C)CC3)c2c1 (stereo not given): 5.10
- COc1ccc2nccc(C(c3nnnn3C(C)(C)C)N(C)C)c2c1 (stereo not given): 5.88
- COc1ccc2nccc(C(c3nnnn3C(C)(C)C)N3CCOCC3)c2c1 (stereo not given): 5.91
- CN(C)C(c1cc(C(F)(F)F)nc2c(C(F)(F)F)cccc12)c1nnnn1C(C)(C)C (stereo not given): 5.34
- COc1ccc2nccc(C(c3nnnn3C(C)(C)C)N3CCCCC3)c2c1 (stereo not given): 5.58
- CCN(CC)C(c1ccnc2ccc(OC)cc12)c1nnnn1C(C)(C)C (stereo not given): 5.62
- C=C[C@H]1CN2CC[C@H]1C[C@H]2[C@H](O)c1ccnc2ccc(OC)cc12: 7.69
- CCN(CC)C(c1cc(C(F)(F)F)nc2c(C(F)(F)F)cccc12)c1nnnn1C(C)(C)C (stereo not given): 5.63
- COc1ccc2nccc(C(c3nnnn3C(C)(C)C)N3CCCC3)c2c1 (stereo not given): 4.86
